# Experiment notes: The compound was tested for affinity towards sigma-3 receptor
Quantity name: pIC50
The read-out pIC50 is expressed as -log10 of concentration in moles per litre.

Examples with answers:
CCCN(C)C1Cc2ccccc2C(c2ccccc2)C1 (stereo not given) ... 8.35
CCCN(CCC)C1Cc2ccccc2C(c2ccccc2)C1 (stereo not given) ... 7.89
CCN(CC)C1Cc2ccccc2C(c2ccccc2)C1 (trans isomer) ... 8.66

# input // lookup pIC50 for CNC1Cc2ccccc2C(c2ccccc2)C1 (stereo not given)
# output 7.10

# input // lookup pIC50 for CCCNC1Cc2ccccc2C(c2ccccc2)C1 (stereo not given)
# output 7.23
